# system: BV2425 (recombinant CoV S glycoprotein, Alpha) (SARS-CoV-2, UniProt P0DTC2 14-1273)
# test: BLI, antibody on anti-mouse Fc biosensor, rS analyte
reported.property: pKd
Answers are plain numbers, as −log10 of the molar value.

// each listed binder needs a value for pKd
1. 35.13 (antibody, V domains shown) VH: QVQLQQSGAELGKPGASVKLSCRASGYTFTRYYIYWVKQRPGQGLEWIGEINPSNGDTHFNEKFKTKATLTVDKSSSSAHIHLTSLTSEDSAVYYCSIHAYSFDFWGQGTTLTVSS VL: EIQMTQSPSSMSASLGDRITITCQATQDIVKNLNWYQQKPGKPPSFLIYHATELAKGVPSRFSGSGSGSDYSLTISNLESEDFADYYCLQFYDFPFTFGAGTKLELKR
2. 322.3 (antibody, V domains shown) VH: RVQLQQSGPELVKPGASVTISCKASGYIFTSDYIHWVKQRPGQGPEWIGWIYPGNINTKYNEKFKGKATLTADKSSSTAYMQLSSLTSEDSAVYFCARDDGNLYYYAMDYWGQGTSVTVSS VL: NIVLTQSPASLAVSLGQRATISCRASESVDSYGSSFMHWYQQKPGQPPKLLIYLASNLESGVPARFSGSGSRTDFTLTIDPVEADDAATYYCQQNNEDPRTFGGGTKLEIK
3. 239.12 (antibody, V domains shown) VH: EVKLEESGPVLVKPSQSLSLTCTVTGYSITSDYAWNWIRQFPGNKLEWMGYISNSAGTSYNPSLKSRISITRDTSKNQFFLQLNSVTTEDTATYYCASGGWSSYYAMDYWGQGTSVTVSS VL: DIQMTQSPASLSASVGETVTITCGASENIYGALNWYQRKQGKSPQLLIYGATNLADGMSSRFSGSGSGRQYSLKISSLHPDDVATYYCQNVLSTPYTFGGGTKLEIKR

Key:
1. 11.49
2. 10.10
3. 11.65
